# measurement.description: Antiproliferative activity against endothelial cells
# Format: cell-based
# condition.label: Endothelial cell
assay.endpoint: IC50 (nM)
Please state the figure in nM; there is no need to write the unit.

* C/C=C/C(O)C/C=C/C[C@H](C)[C@@H](O)CC(=O)NC[C@H](O)[C@H](C)C(=O)NCCC[C@H]1O[C@@]2(CCC[C@@H](CC[C@H](C)/C=C(\C)C(C)=O)O2)CC[C@@H]1C (some centres not stated) | 22

In the following, a different molecule is considered.
Req: I have this molecule here, C/C=C/C(=O)C[C@H]1CC[C@H](C)[C@H](CC(=O)NC[C@H](O)[C@H](C)C(=O)NCCC[C@H]2O[C@@]3(CCC[C@H](CC[C@H](C)/C=C(\C)[C@H](C)O)O3)CC[C@@H]2C)O1 [BISTRAMIDE A] , and I need its recorded IC50.
Resp: 22

###

# Tested on: A2780
# measurement.description: Antiproliferative activity against human A2780 cells
# Type: functional, cell-based
# Lookup of reported pIC50 keyed by entry
Convention used: pIC50 is expressed as -log10 of the molar concentration.

Req: Lab note: need pIC50 for C/C=C/C(O)C/C=C/C[C@H](C)[C@@H](O)CC(=O)NC[C@H](O)[C@H](C)C(=O)NCCC[C@H]1O[C@@]2(CCC[C@@H](CC[C@H](C)/C=C(\C)C(C)=O)O2)CC[C@@H]1C (some centres not stated) on A2780, anyone have it?
Resp: 6.47

Req: What pIC50 appears in the records for this molecule with A2780? C/C=C/C(=O)C[C@H]1CC[C@H](C)[C@H](CC(=O)NC[C@H](O)[C@H](C)C(=O)NCCC[C@H]2O[C@@]3(CCC[C@H](CC[C@H](C)/C=C(\C)[C@H](C)O)O3)CC[C@@H]2C)O1 [BISTRAMIDE A]
Resp: 6.59
